# Study target: GST-Co-NF-kB (Capsaspora owczarzaki, UniProt F1ARL5 200-546)
# Sequence: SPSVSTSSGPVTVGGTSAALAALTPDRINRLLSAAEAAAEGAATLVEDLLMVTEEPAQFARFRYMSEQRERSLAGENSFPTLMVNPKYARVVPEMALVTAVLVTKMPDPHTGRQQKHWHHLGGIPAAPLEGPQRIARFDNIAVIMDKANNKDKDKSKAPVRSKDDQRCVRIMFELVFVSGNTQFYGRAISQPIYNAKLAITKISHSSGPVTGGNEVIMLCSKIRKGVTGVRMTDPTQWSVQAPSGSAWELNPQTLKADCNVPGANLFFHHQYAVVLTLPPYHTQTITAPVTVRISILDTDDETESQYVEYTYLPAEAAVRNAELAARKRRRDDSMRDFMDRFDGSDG
# Test description: protein-binding microarray (PBM); PBM: ~300 nM protein, 6 mM HEPES pH 7.8, 80 mM KCl, 0.5 mM EDTA, 0.5 mM EGTA, 6% glycerol, 35 ng/ul poly-dIdC, 1% milk, 1 h, room temperature; Ap Aiptasia and Nv Nematostella (sea anemones) / Co Capsaspora / Aq Amphimedon (sponge) / Dm Drosophila / Hu human; RHD is the Rel homology domain; high values mean tight binding
# Run parameters: dsDNA, one strand shown
Note that class boundaries on binding signal are one = under 3 z-score, two = from 3 z-score up to 5 z-score, three = 5 z-score and over

Study these solved cases before continuing.
>  <Primary sequence>
CCGATTAACATCAGGGACTTTAATGATGTTAATCGGGTCTTGATTCGCTTGACGCTGCTG

>  <Cat>
one

$$$$
>  <Primary sequence>
CCGATTAACATCAGGGAAAATAATGATGTTAATCGGGTCTTGATTCGCTTGACGCTGCTG

>  <Cat>
three

$$$$
>  <Primary sequence>
CCGATTAACATCACTGGGATTTCTGATGTTAATCGGGTCTTGATTCGCTTGACGCTGCTG

>  <Cat>
one

$$$$
>  <Primary sequence>
CCGATTAACATCACGGGAAAATCTGATGTTAATCGGGTCTTGATTCGCTTGACGCTGCTG

>  <Cat>
three

$$$$
>  <Primary sequence>
CCGATTAACATCACTGGGAAAACTGATGTTAATCGGGTCTTGATTCGCTTGACGCTGCTG

>  <Cat>
three

$$$$
>  <Primary sequence>
CCGATTAACATCAATGTGGGAAATGATGTTAATCGGGTCTTGATTCGCTTGACGCTGCTG

>  <Cat>
one

$$$$
>  <Primary sequence>
CCGATTAACATCAGGGGAAATGATGATGTTAATCGGGTCTTGATTCGCTTGACGCTGCTG

>  <Cat>
three

$$$$
>  <Primary sequence>
CCGATTAACATCAGGGGGACAAATGATGTTAATCGGGTCTTGATTCGCTTGACGCTGCTG

>  <Cat>
three

$$$$
>  <Primary sequence>
CCGATTAACATCAGATGTCCCCCTGATGTTAATCGGGTCTTGATTCGCTTGACGCTGCTG

>  <Cat>
three

$$$$
>  <Primary sequence>
CCGATTAACATCACAAAAGTCCCTGATGTTAATCGGGTCTTGATTCGCTTGACGCTGCTG

>  <Cat>
one

$$$$

API: the following record is the query input.
// query Which class is correct for the following sequence? CCGATTAACATCAGGGCATCCCCTGATGTTAATCGGGTCTTGATTCGCTTGACGCTGCTG
// result one

Where do the numbers come from? From paper PMC5700166.
